- protocol_summary: qHTS Assay for Lipid Storage Modulators (AID 1519)
- test_settings: Drosophila S3 cells, BODIPY lipid droplet/cell ratio, laser cytometry; measured here: cell count channel max response; cells loaded with oleic acid
Inconclusive results are not listed.
// values below are reported max response
Entry rule: numbers only, all in %.

Here are 2 molecules together with their reported answers.
{"compound": "COc1ccc(NC(=O)N2CC[C@@]3(CCCN(S(C)(=O)=O)C3)C2)cc1", "max response / %": 8.24}
{"compound": "COc1ccc(-c2nc3cnc(N4CCNCC4)nc3n(C3CC3)c2=O)cc1", "max response / %": 4.22}

Record request: max response value, item O=C(Oc1ccccc1)N1CCC2(CC1)CN(c1ccncc1)C2
0.26

Next record, please: COc1cc(C)c(C(=O)Oc2cc(C)c(C(=O)O)c(O)c2C)c(OC)c1C
9.06

Thanks! And O=C(c1cnccn1)N1CCC[C@@]2(CCN(c3ccccn3)C2)C1 ?
24.1

Also Cc1cnc(CNc2cc(-c3ccoc3)ncn2)cn1 , if possible.
9.95

And then c1ccc2c(N3CCNCC3)nc(-c3ccoc3)nc2c1 , what is it?
9.44

Now this one: Cn1cccc1C(=O)N1CCC2(CCN(Cc3ccc(C#N)cc3)CC2)CC1
7.43

Where do these numbers come from? They come from PubChem BioAssay (NCATS).
